Biological target: T1, Macaca fascicularis (mf) RET.mmh (Macaca fascicularis)
T1 construct: also called monkey RET
T1 chain: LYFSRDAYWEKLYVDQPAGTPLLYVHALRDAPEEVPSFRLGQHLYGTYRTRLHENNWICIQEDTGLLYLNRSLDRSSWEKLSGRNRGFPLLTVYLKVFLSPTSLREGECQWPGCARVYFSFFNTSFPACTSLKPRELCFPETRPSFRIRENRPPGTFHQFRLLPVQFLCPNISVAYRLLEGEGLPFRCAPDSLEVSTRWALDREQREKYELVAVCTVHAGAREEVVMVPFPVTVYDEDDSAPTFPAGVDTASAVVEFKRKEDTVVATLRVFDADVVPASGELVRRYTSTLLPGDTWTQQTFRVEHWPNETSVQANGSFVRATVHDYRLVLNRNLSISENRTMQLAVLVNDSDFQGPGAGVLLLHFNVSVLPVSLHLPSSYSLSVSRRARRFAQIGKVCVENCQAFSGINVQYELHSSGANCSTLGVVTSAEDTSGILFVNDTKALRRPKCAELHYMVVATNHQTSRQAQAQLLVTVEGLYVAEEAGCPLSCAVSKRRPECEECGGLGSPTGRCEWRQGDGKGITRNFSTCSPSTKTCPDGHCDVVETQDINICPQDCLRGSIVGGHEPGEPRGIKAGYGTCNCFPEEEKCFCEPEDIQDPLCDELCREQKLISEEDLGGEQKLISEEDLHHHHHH
Assay: SPR Biacore T200, mAb capture, 25 C
Protocol: Binding affinities and kinetic constants of human anti-RET antibodies were determined by surface plasmon resonance (Biacore T200) at […] (Tables 2-3). […] Binding equilibrium dissociation constants (KD) and dissociative half-lives (t_{1/2}) were calculated from the kinetic rate constants as: KD [M]=kd/kₐ; and t_{1/2}(min)=(ln2/(60*kd). Calculations were performed using BiacoreT200 evaluation software v1.0.
As shown below, each of these binders has a reported t½ value.
Value expressed in min; do not type the unit.

{"columns": ["binder", "result.type", "endpoint.unit", "result.number"],
 "data": [
  ["H4H8062P (antibody, human IgG4, V domains shown, human IgG4 Fc (H4H prefix)) VH: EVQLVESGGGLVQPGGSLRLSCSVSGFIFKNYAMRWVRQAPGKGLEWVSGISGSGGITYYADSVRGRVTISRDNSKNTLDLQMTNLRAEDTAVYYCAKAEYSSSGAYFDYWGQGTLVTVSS VL: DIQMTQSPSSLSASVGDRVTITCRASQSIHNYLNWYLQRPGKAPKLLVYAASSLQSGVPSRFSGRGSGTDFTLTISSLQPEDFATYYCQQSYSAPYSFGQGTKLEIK", "t½", "min", 16]
]}

For the binder H4H8087P (antibody, human IgG4, V domains shown, human IgG4 Fc (H4H prefix)) VH: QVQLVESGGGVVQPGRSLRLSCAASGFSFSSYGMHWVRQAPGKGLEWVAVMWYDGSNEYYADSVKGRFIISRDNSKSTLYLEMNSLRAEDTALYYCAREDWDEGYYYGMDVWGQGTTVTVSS VL: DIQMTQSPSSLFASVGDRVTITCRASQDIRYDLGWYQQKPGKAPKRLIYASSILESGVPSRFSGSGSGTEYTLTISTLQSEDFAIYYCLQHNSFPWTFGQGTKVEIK , give its reported t½.
42
